target: α4β7 integrin (Homo sapiens (Human), UniProt P13612+P26010); assay: MAdCAM-1/α4β7 integrin binding inhibitory activity evaluation test in the presence of serum (2); assay type: cell-based; conditions: RPMI-8866 cells binding to mouse MAdCAM-1/Fc, same manner as Test (3), read-out: α4β7 Rank of activity with serum added
Sequence (P13612 34-1032): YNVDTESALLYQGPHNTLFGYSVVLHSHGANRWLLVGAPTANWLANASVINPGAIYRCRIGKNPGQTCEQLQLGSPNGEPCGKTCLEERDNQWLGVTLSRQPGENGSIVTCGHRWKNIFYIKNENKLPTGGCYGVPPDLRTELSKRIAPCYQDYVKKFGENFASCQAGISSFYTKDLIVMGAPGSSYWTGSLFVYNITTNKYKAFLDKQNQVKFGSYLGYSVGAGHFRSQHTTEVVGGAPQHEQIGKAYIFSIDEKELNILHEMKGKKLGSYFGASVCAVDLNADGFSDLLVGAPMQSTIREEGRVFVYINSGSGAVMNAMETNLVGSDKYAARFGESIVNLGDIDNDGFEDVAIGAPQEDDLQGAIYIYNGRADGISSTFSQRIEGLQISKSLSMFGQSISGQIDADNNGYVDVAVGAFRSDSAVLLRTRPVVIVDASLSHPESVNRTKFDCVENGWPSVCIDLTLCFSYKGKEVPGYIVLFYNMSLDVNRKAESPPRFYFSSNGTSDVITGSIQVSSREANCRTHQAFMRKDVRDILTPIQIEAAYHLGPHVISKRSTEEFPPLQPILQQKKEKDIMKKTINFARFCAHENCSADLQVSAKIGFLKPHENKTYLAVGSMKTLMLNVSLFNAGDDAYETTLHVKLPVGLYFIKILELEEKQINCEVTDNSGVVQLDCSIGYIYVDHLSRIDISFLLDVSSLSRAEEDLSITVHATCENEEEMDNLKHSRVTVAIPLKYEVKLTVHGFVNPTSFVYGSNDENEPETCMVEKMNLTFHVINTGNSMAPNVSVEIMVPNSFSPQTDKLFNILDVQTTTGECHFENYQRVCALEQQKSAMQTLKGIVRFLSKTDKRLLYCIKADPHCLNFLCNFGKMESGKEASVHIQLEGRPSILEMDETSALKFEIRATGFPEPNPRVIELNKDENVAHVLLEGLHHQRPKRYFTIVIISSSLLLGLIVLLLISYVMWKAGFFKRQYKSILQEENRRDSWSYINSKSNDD
Sequence (P26010 20-798): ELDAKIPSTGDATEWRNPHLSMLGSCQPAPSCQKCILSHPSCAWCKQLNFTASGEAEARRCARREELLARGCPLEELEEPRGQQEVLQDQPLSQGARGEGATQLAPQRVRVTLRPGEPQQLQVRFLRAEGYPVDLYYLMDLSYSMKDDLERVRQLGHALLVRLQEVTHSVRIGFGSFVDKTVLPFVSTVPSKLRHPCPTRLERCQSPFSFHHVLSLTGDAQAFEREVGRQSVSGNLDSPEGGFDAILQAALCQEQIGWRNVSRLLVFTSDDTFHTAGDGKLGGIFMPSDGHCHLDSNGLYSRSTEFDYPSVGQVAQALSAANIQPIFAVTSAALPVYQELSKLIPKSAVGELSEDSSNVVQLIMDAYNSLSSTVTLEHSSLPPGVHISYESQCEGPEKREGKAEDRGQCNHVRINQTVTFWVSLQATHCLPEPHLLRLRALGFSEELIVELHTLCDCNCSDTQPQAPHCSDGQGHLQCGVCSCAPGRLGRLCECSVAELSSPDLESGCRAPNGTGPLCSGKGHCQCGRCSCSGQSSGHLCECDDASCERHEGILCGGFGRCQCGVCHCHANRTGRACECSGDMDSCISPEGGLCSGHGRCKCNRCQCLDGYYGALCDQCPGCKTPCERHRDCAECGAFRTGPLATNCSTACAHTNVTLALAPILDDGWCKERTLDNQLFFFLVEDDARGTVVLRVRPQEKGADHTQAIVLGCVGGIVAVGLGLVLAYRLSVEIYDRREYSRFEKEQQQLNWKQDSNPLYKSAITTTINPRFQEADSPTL
Entries annotated with measured IC50

| Compound structure string | IC50 |
| --- | --- |
| CCNC(=O)c1ccc(S(=O)(=O)Nc2cc(F)c(C(=O)N[C@@H](Cc3ccc(-n4c(=O)cc(C)n(C)c4=O)cc3)C(=O)O)c(F)c2)cc1 | 10 to 50 nM |
| Cn1ccc(=O)n(-c2ccc(C[C@H](NC(=O)c3c(F)cc(NS(=O)(=O)c4ccc(C(=O)NCC5CC5)cc4)cc3F)C(=O)O)cc2)c1=O | 10 to 50 nM |
| Cn1c(=O)n(-c2ccc(C[C@H](NC(=O)c3cc(F)c(NS(=O)(=O)c4ccc(-n5cnnc5)cc4)cc3F)C(=O)O)nc2)c(=O)c2ccncc21 | 10 to 50 nM |
| Cn1c(=O)n(-c2ccc(C[C@H](NC(=O)c3cc(F)c(NS(=O)(=O)c4ccc(-c5cc(F)cc(F)c5)cc4)cc3F)C(=O)O)nc2)c(=O)c2ccncc21 | > 200 nM |
| CCNC(=O)c1ccc(S(=O)(=O)Nc2cc(F)c(C(=O)N[C@@H](Cc3ccc(-n4c(=O)ccn(C)c4=O)cc3)C(=O)O)c(F)c2)cn1 | 10 to 50 nM |
| Cn1c(=O)n(-c2ccc(C[C@H](NC(=O)c3cc(F)c(NS(=O)(=O)c4ccc(-n5cncn5)cc4)cc3F)C(=O)O)cn2)c(=O)c2ccncc21 | 10 to 50 nM |
| Cn1c(=O)n(-c2ccc(C[C@H](NC(=O)c3ccc(NS(=O)(=O)c4ccco4)cc3F)C(=O)O)nc2)c(=O)c2ccncc21 | 10 to 50 nM |
| Cn1c(=O)n(-c2ccc(C[C@H](NC(=O)c3cc(F)c(NS(=O)(=O)c4ccc(-c5cnc(N6CCC6)nc5)cc4)cc3F)C(=O)O)nc2)c(=O)c2ccncc21 | 50 to 200 nM |
| Cc1cc(CNC(C)(C)C)ccc1S(=O)(=O)Nc1ccc(C(=O)N[C@@H](Cc2ccc(-n3c(=O)c4ccncc4n(C)c3=O)cc2)C(=O)O)c(F)c1 | ≤ 10 nM |
| CCC(CC)NC(=O)c1ccc(S(=O)(=O)Nc2cc(F)c(C(=O)N[C@@H](Cc3ccc(-n4c(=O)ccn(C)c4=O)cc3)C(=O)O)c(F)c2)cc1 | ≤ 10 nM |
| CCc1ncc(-c2ccc(S(=O)(=O)Nc3cc(F)c(C(=O)N[C@@H](Cc4ccc(-n5c(=O)c6ccncc6n(C)c5=O)nc4)C(=O)O)cc3F)cc2)cn1 | ≤ 10 nM |
| Cn1ccc(=O)n(-c2ccc(C[C@H](NC(=O)c3c(F)cc(NS(=O)(=O)c4ccc(C(=O)NC(C)(C)C)cc4)cc3F)C(=O)O)cc2)c1=O | ≤ 10 nM |

----------
biological target: α4β7 integrin (Homo sapiens (Human), UniProt P13612+P26010); assay: MAdCAM-1/α4β7 integrin binding inhibitory activity evaluation test (RPMI-8866 cell adhesion to MAdCAM-1/Fc); format: cell-based; conditions: RPMI-8866 cells binding to recombinant mouse MAdCAM-1/Fc, no serum
IC50 under 0.8 nM gets true, anything at or over 0.8 nM gets false.

| Compound structure string | Assigned class |
| --- | --- |
| Cn1ccc(=O)n(-c2ccc(C[C@H](NC(=O)c3c(F)cc(NS(=O)(=O)c4ccc(-c5cncnc5)cc4)cc3F)C(=O)O)cc2)c1=O | false |
| Cn1ccc(=O)n(-c2ccc(C[C@H](NC(=O)c3c(F)cc(NS(=O)(=O)c4ccc(-n5ccnn5)cn4)cc3F)C(=O)O)cc2)c1=O | false |
| Cn1c(=O)n(-c2ccc(C[C@H](NC(=O)c3c(F)cc(NS(=O)(=O)c4ccc(-n5cccc5)cc4)cc3F)C(=O)O)cc2)c(=O)c2ccncc21 | false |
| Cn1c(=O)n(-c2ccc(C[C@H](NC(=O)c3c(F)cc(NS(=O)(=O)c4ccc(-c5ccncc5)cc4)cc3F)C(=O)O)cc2)c(=O)c2ccncc21 | true |
| Cn1ccc(=O)n(-c2ccc(C[C@H](NC(=O)c3c(F)cc(NS(=O)(=O)c4ccc(-n5cncn5)cn4)cc3F)C(=O)O)cc2)c1=O | false |
| Cn1cnc2c1c(=O)n(-c1ccc(C[C@H](NC(=O)c3c(F)cc(NS(=O)(=O)c4ccc(-c5ncccn5)cc4)cc3F)C(=O)O)cc1)c(=O)n2C | true |
| Cn1cnc2c1c(=O)n(-c1ccc(C[C@H](NC(=O)c3c(F)cc(NS(=O)(=O)c4ccc(-n5cccc5)cc4)cc3F)C(=O)O)cc1)c(=O)n2C | false |
